tested on: SNB-19 CNS; assay: NCI tumour cell line growth inhibition, 48 h

| Molecule | Measured On | Result Qualifier | TGI, µM |
| --- | --- | --- | --- |
| Nc1nc(Nc2ccccc2)c2ncn(Cc3cc4c(cc3Br)OCO4)c2n1 | SNB-19 CNS | = | 22.3 |
| NS(=O)(=O)c1ccc(-n2c(-c3cccs3)nc3ccc(I)cc3c2=O)cc1 | SNB-19 CNS | = | 70.6 |
| C#CC(=O)Nc1cccc(Nc2nc3c(c(NCc4ccccc4)n2)CCCC3)c1 | SNB-19 CNS | = | 1.98 |
| COC(=O)[C@@H](NC(=O)[C@@H](OC)[C@@H]1Cc2cc3cc(OC4CC(OC5CC(O)C(O)C(C)O5)C(O)C(C)O4)c(C)c(O)c3c(O)c2C(=O)[C@H]1OC1CC(OC2CC(OC3CC(C)(O)C(O)C(C)O3)C(O)C(C)O2)C(O)C(C)O1)C(C)C (stereo partly drawn) | SNB-19 CNS | > | 32.5 |
| CN(C)Cc1c[nH]c2c1C(=O)c1c(c(O)c3ccccc3c1O)C2=O | SNB-19 CNS | = | 43.4 |
| CO[C@H]1[C@@H](O)[C@@H](C)O[C@@H](O[C@H]2CC[C@@]3(C)[C@H](CC[C@@H]4[C@@H]3CC[C@]3(C)[C@@H](C5=CC(=O)OC5)[C@@H](OC(C)=O)C[C@]43O)C2)[C@@H]1O | SNB-19 CNS | = | 0.507 |
| CCN(CC)/C(Cl)=C(Cl)\C(=C1\Nc2ccc(OC)cc21)[N+](=O)[O-] | SNB-19 CNS | > | 100 |
| O=C(Nc1ccc([N+](=O)[O-])cc1)C1C(=O)C(=O)N(c2ccc([N+](=O)[O-])cc2)C1=O (stereo not drawn) | SNB-19 CNS | > | 100 |
| CC(=O)N(C(=O)CC(=O)N/N=C\c1ccc(Br)c(N(CCC#N)CCC#N)c1)c1ccc(Cl)cc1 | SNB-19 CNS | > | 100 |
| O=C(CN(C1CCCCC1)C1CCCCC1)Nc1ccc(S(=O)(=O)c2ccc(NC(=O)CN(C3CCCCC3)C3CCCCC3)cc2)cc1 | SNB-19 CNS | = | 2.18 |
| CN(C)C1=Nc2ccccc2C(=S)N2CSCC12 (stereo not drawn) | SNB-19 CNS | > | 100 |
| N#CC(NNC(=O)Cc1ccccc1)c1ccccc1O (stereo not drawn) | SNB-19 CNS | > | 80.8 |
| OCC1OC(n2cnc3c2NC=NC[C@H]3O)C(O)C1O (stereo partly drawn) | SNB-19 CNS | > | 450 |

----------
tested on: U251 CNS
Outcome codes: Yes = active, No = inactive

| Compound | Measured On | Label |
| --- | --- | --- |
| O=C(Nc1cccc(Cl)c1)c1cc2ccccc2cc1O | U251 CNS | No |
| CCCCCc1c(C)[nH]c(/C=C2\N=C(c3ccc[nH]3)C=C2CC)c1C | U251 CNS | Yes |
| Nc1ccncc1/C=C1/C(=O)Nc2ccccc21 | U251 CNS | No |
| CC(=O)O[C@@H]1C[C@]2(C(C)C)O[C@@]1(C)[C@@H]1CCC(C)=C1[C@@H]2OC(=O)/C=C/c1ccccc1 | U251 CNS | No |
| COc1cc(/C=C2\C(=O)Nc3ccc(F)cc32)cc(OC)c1OC | U251 CNS | No |
| COc1ccc(C2C(C#N)=C(N)OC3=C2COc2ccc(F)cc23)cc1OC (configuration not stated) | U251 CNS | No |
| CC(=O)Oc1ccccc1C(=O)N=C1[Se]CCN1C(=O)c1ccccc1OC(C)=O | U251 CNS | No |
| c1ccc2c3ccn4cc5c(cc4c-3nc2c1)CCCC5 | U251 CNS | No |
| NC(=O)C(=CNc1nc(-c2ccc(Cl)c(Cl)c2)cs1)C(N)=O | U251 CNS | No |
| Cc1cn2c(/C=C3/C(=O)Nc4ccccc43)c(-c3ccc(Cl)cc3)nc2s1 | U251 CNS | No |
| CN(C)Cc1c[nH]c2c1C(=O)c1c(c(O)c3ccccc3c1O)C2=O | U251 CNS | No |
| CN(C)c1ccc2nc3ccc(=O)cc-3sc2c1 | U251 CNS | No |

----------
system: OVCAR-8 ovarian; test: NCI tumour cell line growth inhibition, 48 h
Recorded TGI, one value per entry.

| Compound | Result Qualifier | TGI / µM |
| --- | --- | --- |
| Cc1c[n+](Cc2ccc3ccccc3c2)cn1Cc1ccc2ccccc2c1 | = | 4.01 |
| O=C1c2ccn(CCCCNC(CO)(CO)CO)c2C(=O)c2c1c(O)c1ccccc1c2O | = | 11.4 |
| O=C(O)c1ccccc1-c1ccccc1C(=O)Nc1ccc2c(c1)Cc1cc(F)ccc1-2 | > | 100 |
| COc1ccc(C2C(C#N)=C(N)OC3=C2COc2ccc(F)cc23)cc1OC (stereo not given) | > | 100 |
| O=C(CC(c1ccccc1)N1CCCCC1)c1ccccc1 (stereo not given) | = | 33.4 |
| COC(=O)c1ccc(/C=C2\N=C(C)OC2=O)cc1 | > | 100 |
| CCN1c2nc3ccccc3nc2N(CC)c2nc3ccccc3nc21 | > | 100 |
| CCOC(=O)C1(C(=O)OCC)CN(CC)CN(c2ccccc2)C1 | = | 47.4 |
| CCOC(=O)C1N(S(=O)(=O)c2ccc(C)cc2)CCC12C(c1ccc(OC)cc1)NC1CCCCC12 (stereo not given) | > | 100 |
| CN(C)Cc1c[nH]c2c1C(=O)c1c(c(O)c3ccccc3c1O)C2=O | = | 29.8 |

----------
Measured TGI by item
system: HCT-116 colon; assay: NCI tumour cell line growth inhibition, 48 h

| Molecule | Result Qualifier | TGI, µM |
| --- | --- | --- |
| OCC1OC(n2cnc3c2NC=NC[C@H]3O)C(O)C1O (stereo not given in full) | > | 450 |
| Cc1ccc(C2CC(c3ccco3)=NN2c2ccccc2)o1 (stereo not given) | > | 100 |
| COc1ccc(C[N+]23C(CC[C@H]2c2ccccc2)CC[C@H]3c2ccccc2)cc1 (stereo not given in full) | > | 100 |
| COc1ccc2c(c1)CCc1c-2[nH]c2ccc(OC)cc12 | > | 100 |
| N#CC1(C2SCCS2=O)C2=C(C(=O)c3ccccc3C2=O)N2CCCC21 (stereo not given) | = | 5.56 |
| O=C(C(=O)N1CCc2ccccc21)c1c[nH]c2ccccc12 | > | 10 |
| O=C1c2cc3c(cc2CC12Cc1cc4c(cc1C2=O)CCC4)CCCC3 (stereo not given) | > | 100 |
| Cc1ccc(Nc2nc(N)c(C(=O)c3ccc(C#N)cc3)s2)cc1 | = | 6.74 |
| Cc1cc(C)cc(C(=N)c2ccccc2Cc2cccc3ccccc23)c1 | = | 23.2 |
| CC(=O)Oc1ccccc1C(=O)N=C1[Se]CCCN1C(=O)c1ccccc1OC(C)=O | = | 5.95 |

----------
TGI listing for selected compounds.
tested on: RPMI-8226 leukemia; test: NCI tumour cell line growth inhibition, 48 h

| Compound | TGI |
| --- | --- |
| OCC1OC(n2cnc3c2NC=NC[C@H]3O)C(O)C1O (stereo partly specified) | > 450 µM |
| COc1ccccc1/C=C/c1cnccn1 | > 10 µM |
| COc1ccc2c(c1)CC[C@@H]1[C@@H]2CC[C@]2(C)C(=O)/C(=C/c3ccc(OC)c(OC)c3)C[C@@H]12 | > 100 µM |
| c1cc(-c2ncc(-c3ccc4c(c3)CCCO4)o2)ccn1 | 30.4 µM |
| C#CCn1ncc2c(SCc3ccccc3)ncnc21 | > 100 µM |
| COc1cc2c(cc1OC)C(O)[C@H](Br)C(C)(C)O2 (stereo partly specified) | > 100 µM |

----------
test system: SF-295 CNS; assay: NCI tumour cell line growth inhibition, 48 h

| Compound | Result Qualifier | TGI (µM) |
| --- | --- | --- |
| CC(C)(C)N1CC2(CCCCC2)C1=O | > | 100 |
| COc1cc(/C=C2\C[C@H]3[C@@H]4CC=C5C[C@@H](O)CC[C@]5(C)[C@H]4CC[C@]3(C)C2=O)cc(OC)c1OC | = | 52.7 |
| COc1ccccc1/C=C/c1cnccn1 | > | 10 |
| Cc1cccc2c1[C@]13OC(C)[C@]4(C)CC5OC(=O)[C@@]1(C)[C@@H]5[C@]34C(=O)O2 (stereo not given in full) | > | 100 |
| N#CC1(C2SCCS2=O)C2=C(C(=O)c3ccccc3C2=O)N2CCCC21 (stereo not given) | = | 7.82 |

----------
system: SNB-78 CNS; assay: NCI tumour cell line growth inhibition, 48 h

| Compound | Measured On | TGI |
| --- | --- | --- |
| NC(CCC(=O)NC(CSC(=O)N(O)c1ccc(Br)cc1)C(=O)NCC(=O)O)C(=O)O (stereo unspecified) | SNB-78 CNS | > 100 µM |
| O=C(CCC/C(CC(=O)c1ccc(Br)cc1)=N\O)Nc1ccccc1 | SNB-78 CNS | > 100 µM |
| C/C(=C1/CCCC2(N=NCC2c2ccccc2)C1=O)c1ccccc1 (stereo unspecified) | SNB-78 CNS | 90.2 µM |
| O=[N+]([O-])c1ccc(-n2nnc(C3=NCCCN3)c2-c2ccc(Cl)cc2)cc1 | SNB-78 CNS | > 100 µM |
| O=C1C(Cl)C(c2ccccc2)N1n1cnc2ccccc2c1=O (stereo unspecified) | SNB-78 CNS | > 100 µM |
| CCOC(=O)C(N=Nc1ccc(S(N)(=O)=O)cc1)C(C)=O (stereo unspecified) | SNB-78 CNS | > 100 µM |

All values here come from PubChem BioAssay (NCI).
